Catalogue of growth inhibition values
Experiment: NCI Yeast Anticancer Drug Screen. Data for the cln2 rad14 strain (AID 165);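 also: 0% = growth equal to vehicle treated cultures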
Details: S. cerevisiae cln2 rad14 strain, at 5.0 µM (retest, dose inferred, filed as 0.5), hits give high values
This is part of a sample that, as a whole, favours compounds with a hit. Of some 79,000 tested, about 15% had one in any assay.
Give a bare numeral; the unit % is implied.

[[record]]
molecule = "O=c1ccc(=O)n(-c2ccccc2)[nH]1"
measurement_name = "growth inhibition"
measurement_unit = "%"
result = 18

[[record]]
molecule = "OC1(c2ccccc2)CCCc2ccc(Cl)cc21 (stereo unspecified)"
measurement_name = "growth inhibition"
measurement_unit = "%"
result = 3

[[record]]
molecule = "O=C1CSC(c2cccc(Cl)c2)N1c1ccc(-c2ccc(-n3c(-c4ccccc4)nc4ccccc4c3=O)cc2)cc1 (stereo unspecified)"
measurement_name = "growth inhibition"
measurement_unit = "%"
result = 31

[[record]]
molecule = "COC(=O)Nc1cn2ccc(C(Cl)=C(Cl)Cl)cc2n1"
measurement_name = "growth inhibition"
measurement_unit = "%"
result = 7

[[record]]
molecule = "C=C(Cl)COC(=O)Nc1cccc(Cl)c1"
measurement_name = "growth inhibition"
measurement_unit = "%"
result = 19

[[record]]
molecule = "CN(C)[C@@H]1C(=O)C(C(N)=O)=C(O)[C@@]2(O)C(=O)C3=C(O)c4c(O)cccc4C[C@H]3C[C@@H]12"
measurement_name = "growth inhibition"
measurement_unit = "%"
result = 61

[[record]]
molecule = "Nc1ccn(C2OC(COP(=O)(O)O)C(O)C2O)c(=O)n1 (stereo unspecified)"
measurement_name = "growth inhibition"
measurement_unit = "%"
result = -4

[[record]]
molecule = "CCCCN(CCCC)C(=O)/C=C/c1ccccc1"
measurement_name = "growth inhibition"
measurement_unit = "%"
result = 7

[[record]]
molecule = "CCc1nc2ccc(NCCN(C)C)c3c(=O)c4ccccc4n1c23"
measurement_name = "growth inhibition"
measurement_unit = "%"
result = 14

[[record]]
molecule = "COC(=O)/C=C(/CC(=O)OC)C(=O)OC"
measurement_name = "growth inhibition"
measurement_unit = "%"
result = 15


Read the next record carefully.
input: Recorded growth inhibition for Cc1cc2c3ccccc3c3ccccc3c2nn1 , please?
output: -59

###

Test: NCI Yeast Anticancer Drug Screen. Data for the CLN2oe strain (AID 163);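 also: 0% = growth of vehicle-only control cultures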
Settings: S. cerevisiae CLN2oe strain, at 33.0 µM
This is part of a sample that, as a whole, favours compounds with a hit. Of some 79,000 tested, about 15% had one in any assay. Calls of active or inactive are those of the source. No stated cut-off is given here; in the data, active means growth inhibition above about 70%; inactive means the rest.
Could you please pick one outcome from this set? 1.0 for active, 0.0 for inactive

Observe how each entry below is paired with its result.
[[record]]
compound = "O=C(/C=C/c1cc(Cl)cc(Cl)c1O)c1cccc(O)c1"
classification = 1.0

[[record]]
compound = "NC1=NNC2(C(N)=N1)c1ccccc1-c1ccccc12"
classification = 0.0

[[record]]
compound = "Clc1ccc2c(c1)N(CCCN1CCCC13CCCCC3)c1ccccc1S2"
classification = 0.0

[[record]]
compound = "Cc1ccccc1N=Cc1cc(Cl)ccc1O"
classification = 0.0

[[record]]
compound = "CCOC(=O)CC1(C(=O)OCC)c2[nH]c3ccccc3c2CCN1Cc1ccccc1 (centres undefined)"
classification = 0.0


input: How did this test come out for COc1ccc(/C=C/C(=O)c2ccccc2)cc1OC ?
output: 0.0

input: Outcome logged for Nc1ncnc2c1ncn2C1OC(CO)CC1O (centres undefined) in this assay:
output: 0.0
